PROCEDURE SUMMARY: qHTS assay for small molecule agonists of the p53 signaling pathway (AID 651631); further: nearly all actives have a fitted effect of over 15% in size
COND: HCT-116 p53RE-bla reporter, beta-lactamase FRET ratio, 16 h; series mostly up to 73.3 µM
Records with an inconclusive call do not appear. The source made the active and inactive calls. The call rests on the fitted dose curve.
Outcome codes: active, inactive

>  <MOLECULE>
CC(=O)c1cnccn1

>  <ASSIGNED LABEL>
inactive

$$$$
>  <MOLECULE>
CCOC(=O)CCC(=O)OCC

>  <ASSIGNED LABEL>
inactive

$$$$
>  <MOLECULE>
CC1OC1C1CCC2(C)OC2C1 (stereo unspecified)

>  <ASSIGNED LABEL>
inactive

$$$$
>  <MOLECULE>
NCCCC[C@H](N[C@@H](CCc1ccccc1)C(=O)O)C(=O)N1CCC[C@H]1C(=O)O

>  <ASSIGNED LABEL>
inactive

$$$$
>  <MOLECULE>
O=[N+]([O-])c1ccc(/C=N\O)o1

>  <ASSIGNED LABEL>
inactive

$$$$
>  <MOLECULE>
C=CC(C)(CCC=C(C)C)OC(=O)CC (stereo unspecified)

>  <ASSIGNED LABEL>
inactive

$$$$
>  <MOLECULE>
CCN(C=O)CC

>  <ASSIGNED LABEL>
inactive

$$$$
>  <MOLECULE>
CC(C)=CCC/C(C)=C/C#N

>  <ASSIGNED LABEL>
inactive

$$$$
>  <MOLECULE>
CC(=O)Nc1ccc(OCC(O)CNC(C)C)cc1 (stereo unspecified)

>  <ASSIGNED LABEL>
inactive

$$$$
>  <MOLECULE>
CCCCCC(=O)OCCc1ccccc1

>  <ASSIGNED LABEL>
inactive

$$$$
>  <MOLECULE>
CC1=CCC(O)(C(C)C)CC1 (stereo unspecified)

>  <ASSIGNED LABEL>
inactive

$$$$
>  <MOLECULE>
O=C(CO)[C@@H](O)[C@H](O)[C@@H](O)CO

>  <ASSIGNED LABEL>
inactive

$$$$
>  <MOLECULE>
C=CCOCC(O)CO (stereo unspecified)

>  <ASSIGNED LABEL>
inactive

$$$$
>  <MOLECULE>
O=S(=O)(O)c1cccc2c(S(=O)(=O)O)cccc12

>  <ASSIGNED LABEL>
inactive

$$$$
>  <MOLECULE>
Nc1ccn([C@@H]2O[C@H](CO)[C@@H](O)C2(F)F)c(=O)n1

>  <ASSIGNED LABEL>
active

$$$$
>  <MOLECULE>
CCCC(C)C(=O)OCC (stereo unspecified)

>  <ASSIGNED LABEL>
inactive

$$$$
>  <MOLECULE>
CCCCCCCCN1CCCC1=O

>  <ASSIGNED LABEL>
inactive

$$$$
>  <MOLECULE>
Cc1cccc(C)c1NC(=O)CC12CCCN1CCC2

>  <ASSIGNED LABEL>
inactive

$$$$
>  <MOLECULE>
O=C(c1ccccc1)C1(O)CCCCC1

>  <ASSIGNED LABEL>
inactive

$$$$
>  <MOLECULE>
CC12CCC(C(=O)C1=O)C2(C)C (stereo unspecified)

>  <ASSIGNED LABEL>
inactive

$$$$
>  <MOLECULE>
CC(COc1ccccc1)NN (stereo unspecified)

>  <ASSIGNED LABEL>
inactive

$$$$
>  <MOLECULE>
O=C(O)CCSCCC(=O)O

>  <ASSIGNED LABEL>
inactive

$$$$
>  <MOLECULE>
CCOC(=O)C1=NOC(c2ccccc2)(c2ccccc2)C1

>  <ASSIGNED LABEL>
inactive

$$$$
>  <MOLECULE>
CCCCOCCOC(=O)CCCCCCCCC(=O)OCCOCCCC

>  <ASSIGNED LABEL>
inactive

$$$$
>  <MOLECULE>
Cc1ccc(C(=O)Nc2ccc(S(=O)(=O)O)c3cc(S(=O)(=O)O)cc(S(=O)(=O)O)c23)cc1NC(=O)c1cccc(NC(=O)Nc2cccc(C(=O)Nc3cc(C(=O)Nc4ccc(S(=O)(=O)O)c5cc(S(=O)(=O)O)cc(S(=O)(=O)O)c45)ccc3C)c2)c1

>  <ASSIGNED LABEL>
inactive

$$$$
>  <MOLECULE>
C[C@@H]1CCC[C@H](C)N1

>  <ASSIGNED LABEL>
inactive

$$$$
